FYI, the data here is from the supplement of paper PMC3545927.

# System tested: furin, P09958;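 note: purified furin at 1:10 enzyme:substrate in 50 mM HEPES pH 7.5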
# Sequence (P09958 whole entry): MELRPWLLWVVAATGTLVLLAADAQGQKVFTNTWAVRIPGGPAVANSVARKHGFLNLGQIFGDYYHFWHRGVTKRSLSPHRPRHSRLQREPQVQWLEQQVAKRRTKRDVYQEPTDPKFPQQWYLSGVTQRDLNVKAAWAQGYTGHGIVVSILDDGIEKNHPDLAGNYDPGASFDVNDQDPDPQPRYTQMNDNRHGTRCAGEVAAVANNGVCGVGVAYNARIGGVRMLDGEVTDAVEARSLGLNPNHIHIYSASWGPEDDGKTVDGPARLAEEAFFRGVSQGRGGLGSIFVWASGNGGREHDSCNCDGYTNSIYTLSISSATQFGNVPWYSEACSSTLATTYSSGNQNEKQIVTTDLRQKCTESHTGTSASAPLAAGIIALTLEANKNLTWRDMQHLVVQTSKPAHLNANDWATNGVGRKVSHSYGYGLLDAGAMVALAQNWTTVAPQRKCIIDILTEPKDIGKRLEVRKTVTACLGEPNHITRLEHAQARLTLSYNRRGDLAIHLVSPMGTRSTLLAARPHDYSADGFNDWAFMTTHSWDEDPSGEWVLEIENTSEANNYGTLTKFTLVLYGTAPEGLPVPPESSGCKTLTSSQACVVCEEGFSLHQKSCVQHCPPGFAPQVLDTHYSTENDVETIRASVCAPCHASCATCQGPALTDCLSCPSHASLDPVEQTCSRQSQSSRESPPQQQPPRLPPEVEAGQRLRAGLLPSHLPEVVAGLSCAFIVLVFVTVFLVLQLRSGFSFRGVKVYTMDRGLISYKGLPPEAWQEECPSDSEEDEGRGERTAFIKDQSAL
# Protocol summary: furin cleavage Z-score vs untreated control; higher = more cleavage, active = 3.5 or more, inactive = 1 or less, 8 variable residues between constant flanks
# Test parameters: 30 min
The other results are listed elsewhere or left out. How many sequences the whole screen found active is unknown.
Each entry below carries its reported furin cleavage Z-score.
When you answer, write just the number.

Below, each entry is followed by its recorded furin cleavage Z-score result.
Residue string	Observed property	Numeric result
CAAIPLEVIKAGNASASA [HC850]	furin cleavage Z-score	-0.386
CALEVVTSTWAGNASASA [HC987]	furin cleavage Z-score	1.7
CAMEECSQHRAGNASASA [HC1773]	furin cleavage Z-score	2.83
CAGVPPLRAWAGNASASA [HC1617]	furin cleavage Z-score	0.446
CAMECCSQHLAGNASASA [HC1720]	furin cleavage Z-score	0.728

## Task Supply furin cleavage Z-score value. Item: CALVVTSTWVAGNASASA [HC2145]
## Result -0.561

## Task Supply furin cleavage Z-score value. Item: CAGCPPDSDAAGNASASA [HC1348]
## Result -1.34
